Tested on: L6
Test: Cytotoxicity against rat L6 cells after 72 hrs by Alamar blue assay
Format: cell-based
Settings: L6, 72 h
Some compounds, each annotated with its measured IC50.
Give the value, in units of µM, as a plain number.

# compound.string, recorded.endpoint, unit.string, measured.value
measured = [
    ("O=C(Cc1ccc(O)c(O)c1)NCCCNCCCCNCCCNC(=O)Cc1ccc(O)c(O)c1", "IC50", "µM", 85),
]

Consider the compound shown here: `COc1cc(CC(=O)NCCN2CCOCC2)ccc1O` What is its recorded IC50?
210

====

System: L6
Test: Cytotoxicity against rat L6 cells after 72 hrs by Alamar blue assay
Type: cell-based
Details: L6, 72 h
pIC50: −log10 of the molar value.
Some compounds, each annotated with its measured pIC50.

# annotated cases, reported pIC50 shown
# compound.string, assay.target, recorded.endpoint, measured.value
rows = [
    ("COc1cc(CC(=O)NCCN(C)C)ccc1O", "L6", "pIC50", "< 3.60"),
    ("O=C(Cc1ccc(O)cc1)NCCCCNCCCNC(=O)Cc1ccc(O)cc1", "L6", "pIC50", "< 3.77"),
    ("COc1cc(CC(=O)NCCCNCCCCNCCCNC(=O)Cc2ccc(O)c(OC)c2)ccc1O", "L6", "pIC50", "< 3.92"),
    ("COc1cc(CC(=O)NCCCNCCNCCCNC(=O)Cc2ccc(O)c(OC)c2)ccc1O", "L6", "pIC50", "< 3.92"),
    ("O=C(Cc1ccccc1O)NCCCNCCCCNCCCNC(=O)Cc1ccccc1O", "L6", "pIC50", "< 3.89"),
    ("O=C(Cc1ccccc1)NCCCNCCCCNCCCNC(=O)C(F)(F)F", "L6", "pIC50", 3.96),
    ("COc1ccc(OC)c(CC(=O)NCCCNCCCCNCCCNC(=O)Cc2cc(OC)ccc2OC)c1", "L6", "pIC50", 4.06),
    ("COc1cc(CC(=O)NCCCCNCCCNC(=O)Cc2ccc(O)c(OC)c2)ccc1O", "L6", "pIC50", "< 3.82"),
    ("O=C(Cc1ccc(O)c(O)c1)NCCCCNC(=O)Cc1ccc(O)c(O)c1", "L6", "pIC50", 3.89),
    ("O=C(Cc1ccc(O)c(O)c1)NCCCNCCNC(=O)Cc1ccc(O)c(O)c1", "L6", "pIC50", 3.85),
]

Missing value: pIC50, L6, entry `COc1cc(CC(=O)NCCCNCCNC(=O)Cc2ccc(O)c(OC)c2)ccc1O` . Fill in?
< 3.80

Missing value: pIC50, L6, entry `COc1cc(CC(=O)NCCCCNC(=O)Cc2ccc(O)c(OC)c2)ccc1O` . Fill in?
< 3.66

Missing value: pIC50, L6, entry `NCCCNCCCCNCCCNC(=O)Cc1ccccc1` . Fill in?
4.03
